- experimental_system: Man(a1-2)Man(a1-6)[Man(a1-3)]Man(a1-6)[Man(a1-2)Man(a1-2)Man(a1-3)]Man
- experiment_notes: glycan array binding signal (z-score within array); higher = stronger binding
- reported_conditions: glycan notation: IUPAC condensed, linker removed
This is one part of a sample in which the strongest signals are shown more often than they occur.
parameter_measured: glycan array binding signal (z-score)
Answer with a number only.

Some entries whose results are on file:
CSA (Cytisus scoparius), P29257 (protein) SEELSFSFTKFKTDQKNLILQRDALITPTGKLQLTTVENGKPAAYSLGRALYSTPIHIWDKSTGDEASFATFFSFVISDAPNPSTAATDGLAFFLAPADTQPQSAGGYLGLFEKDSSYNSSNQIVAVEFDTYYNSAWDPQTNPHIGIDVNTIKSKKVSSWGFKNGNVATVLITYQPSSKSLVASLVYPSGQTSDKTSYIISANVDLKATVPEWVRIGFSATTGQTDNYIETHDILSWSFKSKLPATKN; -0.179
Glycodelin A (Homo sapiens), P09466 (protein) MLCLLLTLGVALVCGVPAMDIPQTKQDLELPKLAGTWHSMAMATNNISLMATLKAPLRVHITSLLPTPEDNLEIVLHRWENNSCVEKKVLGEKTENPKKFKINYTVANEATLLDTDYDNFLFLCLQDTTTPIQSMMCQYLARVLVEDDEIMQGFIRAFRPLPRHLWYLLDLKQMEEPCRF; -0.427
Ficolin B (Rattus norvegicus), P57756 (protein) MVLGSAALFVLSLCVTELTLHAADTCPEVKVLDLEGSNKLTILQGCPGLPGALGPKGEAGAKGDRGESGLPGHPGKAGPTGPKGDRGEKGVRGEKGDTGPSQSCATGPRTCKELLTRGYFLTGWYTIYLPDCRPLTVLCDMDTDGGGWTVFQRRIDGTVDFFRDWTSYKQGFGSQLGEFWLGNDNIHALTTQGTNELRVDLADFDGNHDFAKYSSFQIQGEAEKYKLILGNFLGGGAGDSLTSQNNMLFSTKDQDNDQGSSNCAVRYHGAWWYSDCHTSNLNGLYLRGLHKSYANGVNWKSWKGYNYSYKVSEMKVRLI; -0.212

Which glycan array binding signal (z-score) is reported for this binder? AT1G73650(15) (Arabidopsis thaliana), F4HRY1 (protein) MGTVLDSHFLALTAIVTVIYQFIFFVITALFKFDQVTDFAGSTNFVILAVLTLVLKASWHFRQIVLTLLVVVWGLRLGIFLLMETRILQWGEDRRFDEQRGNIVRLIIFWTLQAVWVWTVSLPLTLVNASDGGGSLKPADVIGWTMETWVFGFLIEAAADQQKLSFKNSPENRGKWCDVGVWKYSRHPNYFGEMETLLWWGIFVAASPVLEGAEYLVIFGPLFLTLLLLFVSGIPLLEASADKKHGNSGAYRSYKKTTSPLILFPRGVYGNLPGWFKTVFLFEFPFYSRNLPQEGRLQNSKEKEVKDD
-0.508
